System: Pseudomonas aeruginosa
PROCEDURE SUMMARY: Antibacterial activity against Pseudomonas aeruginosa ATCC 27853 after 24 hrs by microbroth dilution method
Type: functional
CONDITIONS USED: ATCC 27853, 24 h
ENDPOINT LABEL: MIC (µg/mL)
Give bare numbers, in µg/mL.

Examples with their reported MIC follow.
[[record]]
molecule = "O=C(O)c1cn(C2CC2)c2cc(N3CCNCC3)c(F)cc2c1=O"
data_value = 1

[[record]]
molecule = "NC1CCN(c2c(F)cc3c(=O)c(C(=O)O)cn(C4CC4)c3c2Cl)C1 (stereo not drawn)"
data_value = 1

[[record]]
molecule = "Cc1nc(N2CCOCC2)c([N+](=O)[O-])n1CC(O)CN1CCN(c2cc3c(cc2F)c(=O)c(C(=O)O)cn3C2CC2)CC1 (stereo not drawn)"
data_value = 0.5

[[record]]
molecule = "Cc1nc(N2CCCCC2)c([N+](=O)[O-])n1CC(O)CNC1CCN(c2c(F)cc3c(=O)c(C(=O)O)cn(C4CC4)c3c2Cl)C1 (stereo not drawn)"
data_value = 1

[[record]]
molecule = "CCn1cc(C(=O)O)c(=O)c2cc(F)c(N3CCN(CC(O)Cn4c(C)nc(N5CCCC5)c4[N+](=O)[O-])CC3)cc21 (stereo not drawn)"
data_value = 4

[[record]]
molecule = "CCn1cc(C(=O)O)c(=O)c2cc(F)c(N3CCN(CC(O)Cn4c(C)nc(N5CCCCC5)c4[N+](=O)[O-])CC3)cc21 (stereo not drawn)"
data_value = 4

[[record]]
molecule = "Cc1nc(N2CCOCC2)c([N+](=O)[O-])n1CC(O)CNC1CCN(c2c(F)cc3c(=O)c(C(=O)O)cn(C4CC4)c3c2Cl)C1 (stereo not drawn)"
data_value = 0.25

[[record]]
molecule = "Cc1nc(N2CCCC2)c([N+](=O)[O-])n1CC(O)CNC1CCN(c2c(F)cc3c(=O)c(C(=O)O)cn(C4CC4)c3c2Cl)C1 (stereo not drawn)"
data_value = 0.5


Batch request: MIC for each of the following molecules.
1. Cc1nc(N2CCCCC2)c([N+](=O)[O-])n1CC(O)CN1CCN(c2cc3c(cc2F)c(=O)c(C(=O)O)cn3C2CC2)CC1 (stereo not drawn)
2. CCn1cc(C(=O)O)c(=O)c2cc(F)c(N3CCN(CC4CO4)CC3)cc21 (stereo not drawn)
3. CCn1cc(C(=O)O)c(=O)c2cc(F)c(N3CCN(CC(O)Cn4c([N+](=O)[O-])cnc4C)CC3)cc21 (stereo not drawn)
4. Cc1nc(N2CCCC2)c([N+](=O)[O-])n1CC(O)CN1CCN(c2cc3c(cc2F)c(=O)c(C(=O)O)cn3C2CC2)CC1 (stereo not drawn)
5. O=C(O)c1cn(C2CC2)c2cc(N3CCN(CC4CO4)CC3)c(F)cc2c1=O (stereo not drawn)
6. CCn1cc(C(=O)O)c(=O)c2cc(F)c(N3CCNCC3)cc21
7. O=C(O)c1cn(C2CC2)c2c(Cl)c(NC3CCN(CC4CO4)C3)c(F)cc2c1=O (stereo not drawn)

[reply]
1. 1
2. 16
3. 2
4. 2
5. 2
6. 4
7. 0.5
